protocol-summary: chemical genetic growth profiling, strain panel (AID 1159580);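 further: tested at 20 µM; growth read once vehicle control cultures reached saturation at 30 °C; 1 = growth at the plate median or of vehicle wells; lower values mean less growth of the strain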
recorded-conditions: S. cerevisiae deletion strains, growth OD, locus YOR083W, strain WHI5, hits give low values
About 2,000 (36%) of roughly 5,500 compounds were called active. Roughly 18% stayed inconclusive and do not appear here. The list shows a part of the results.
Below, each entry is listed with its recorded normalized growth.
// keep it numeric: no unit symbol after the value

In the examples that follow, each entry is paired with its recorded normalized growth.
Please look up its normalized growth: `CC12CC3CC(C)(C1)CC(N)(C3)C2`
0.977

What do you have for NC(=O)c1ncn(C2O[C@H](CO)[C@@H](O)[C@H]2O)c1N (stereo not given in full) ?
1.02

Another compound to look at: `O=C(O)CCCOc1ccc(Cl)cc1Cl`
0.956

Again, but for `S=P(N1CC1)(N1CC1)N1CC1`
0.997

# evaluate next
Suppose we examine the compound Cc1ncc([N+](=O)[O-])n1CC(C)O (stereo not given) ; what normalized growth value has been reported?
0.997

----------
protocol-summary: chemical genetic growth profiling, strain panel (AID 1159580);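 further: tested at 20 µM; growth read once vehicle control cultures reached saturation at 30 °C; 1 = growth at the plate median or of vehicle wells; lower values mean less growth of the strain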
recorded-conditions: S. cerevisiae deletion strains, growth OD, locus YJL095W, strain BCK1, hits give low values
Screen size: about 5,500 compounds; about 2,000 (36%) were called active. Not shown: some 18% with an inconclusive outcome. This is one part of the list.
parameter: normalized growth
A bare number is all that is needed in reply.

As a guide, the following entries are already answered.
Can you share its normalized growth? I mean this compound: `Cc1cc(O)c(C)c2c1C(=O)Oc1c(C)c(O)c(C(=O)O)c(C)c1O2`
1.01

Then what about the compound C=C1C2=CC(=O)O[C@@H](c3ccoc3)[C@]2(C)CCC1[C@@]1(C)C=CC(=O)C(C)(C)[C@@H]1CC(=O)OC (some centres undefined) ?
1.02

Repeat for the following compound: C=C1C2CC[C@@]3(C)[C@H](c4ccoc4)OC(=O)C[C@]13O[C@H]1CC(=O)C(C)(C)C(CC(=O)OC)[C@@]21C (some centres undefined)
1.03

New cases:
Give its normalized growth value. Item: `Cc1onc(-c2ccccc2)c1C(=O)Sc1ccc(C(F)(F)F)cn1`
0.424

Follow-up item: `CCN(CC)CCOCCOC(=O)C(CC)(CC)c1ccccc1`
0.988

Entry to check: `O=S(=O)(Nc1ccc(Oc2ccc(Cl)cc2)cc1)c1ccccc1`
0.108

Then `COc1cc(CC/C(C)=N\O)ccc1OCc1ccc(Cl)c(Cl)c1` ?
0.849

Moving on to C=Cc1c(C)c2[n-]c1=Cc1[n-]c(c(CC)c1C)C=c1[n-]c3c(c1C)C(=O)C(C(=O)[O-])C=3c1[n-]c(c(C)c1CCC(=O)[O-])C=2.[Cu] (centres undefined)
0.957

Next record, please: `CN(C(=O)CN(CCO)CC(=O)N(C)C(C)(C)Cc1ccccc1)C(C)(C)Cc1ccccc1`
1.01

----------
protocol-summary: chemical genetic growth profiling, strain panel (AID 1159580);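 further: tested at 20 µM; growth read once vehicle control cultures reached saturation at 30 °C; 1 = growth at the plate median or of vehicle wells; lower values mean less growth of the strain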
recorded-conditions: S. cerevisiae deletion strains, growth OD, locus YMR263W, strain SAP30, hits give low values
The whole screen tested about 5,500 compounds, of which about 2,000 (36%) were called active. Roughly 18% stayed inconclusive and do not appear here. The list shows a part of the results.
Parameter normalized growth: see the listing below.
The response must contain the number and no unit.

Please review the following examples before continuing.
Give the measured normalized growth of `N#Cc1cccc(Cn2c(=O)oc3ccccc32)c1` .
0.995

Would you kindly repeat that for Cc1ccc2c(c1)N(CCO)C(C)(C)CC2C (configuration not stated) ?
0.997

Please answer likewise for `Cc1cscc1S(=O)(=O)c1ccc(Cl)cc1`
0.953

Okay, and `C=C1[C@H]2CC[C@@]3(C)[C@H](c4ccoc4)OC(=O)C[C@]13O[C@H]1C[C@H](O)C(C)(C)[C@H](CC(=O)OC)[C@]12C` ?
1.01

Others:
Which normalized growth value belongs to `O=C(Nc1ccccc1)Nc1ccccc1` ?
1

Try the molecule `Cc1nn(Cc2n[nH]c(=S)o2)c(C)c1Br`
0.93

And `N[C@@H](CC(=O)O)C(=O)O` ?
1

Hello, the source for this data is PubChem BioAssay AID1159580, in case you need it.
